target: Cystine/glutamate transporter (Homo sapiens) (UniProt Q9UPY5); assay: Inhibition of cystine/glutamate transporter in human SNB19 cells assessed as [3H]glutamate uptake at 500 uM; format: cell-based; design: scale not given: the % may be the effect or the level left; conditions: SNB-19
Sequence (Q9UPY5 whole entry): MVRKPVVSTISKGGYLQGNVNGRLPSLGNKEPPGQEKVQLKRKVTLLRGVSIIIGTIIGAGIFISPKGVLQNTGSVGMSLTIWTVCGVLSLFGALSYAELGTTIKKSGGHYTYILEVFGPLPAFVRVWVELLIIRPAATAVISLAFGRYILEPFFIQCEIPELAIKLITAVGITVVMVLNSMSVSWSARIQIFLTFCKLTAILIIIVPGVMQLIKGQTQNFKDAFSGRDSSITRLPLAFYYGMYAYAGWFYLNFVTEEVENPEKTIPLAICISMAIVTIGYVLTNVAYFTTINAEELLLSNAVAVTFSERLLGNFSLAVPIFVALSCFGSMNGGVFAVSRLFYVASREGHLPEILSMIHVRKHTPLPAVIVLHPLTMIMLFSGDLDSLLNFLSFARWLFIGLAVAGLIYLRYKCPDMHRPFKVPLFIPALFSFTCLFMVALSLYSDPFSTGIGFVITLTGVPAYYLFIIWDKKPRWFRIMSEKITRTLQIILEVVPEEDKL
Measurement name: Activity (%)

Recorded Activity, per entry:
- Compound: "Nc1c(/N=N/c2ccc(-c3ccc(/N=N/c4cc(S(=O)(=O)O)c5ccccc5c4N)cc3)cc2)cc(S(=O)(=O)O)c2ccccc12"
  Measurement name: "Activity"
  Value units: "%"
  Measured result: 82
- Compound: "O=C1NC(=O)C(c2ccc(-c3cccs3)s2)N1 (stereo unspecified)"
  Measurement name: "Activity"
  Value units: "%"
  Measured result: 85
- Compound: "O=C1NC(=O)C(c2cccnc2)N1 (stereo unspecified)"
  Measurement name: "Activity"
  Value units: "%"
  Measured result: 95

1. O=C1NC(=O)C(c2ccc(Br)s2)N1 (stereo unspecified)
2. O=C1NC(=O)C(c2ccc(-c3ccc(C(=O)O)cc3)cc2)N1 (stereo unspecified)
Prompt: Exercise: compare 1 and 2 ; which one has the greater Activity? Kindly give the label for the entry you pick.
Completion: 2
(2: 104%, 1: 65%)

###

species on record: Rattus norvegicus; assay: Inhibition of VGLUT in rat synaptic vesicles assessed as glutamate uptake at 5 mM relative to control; set-up: scale not given: the % may be the effect or the level left
Measurement name: Activity (%)

- Compound: "O=C1NC(c2cccc3ccccc23)C(=O)N1CCCN1C(=O)NC(c2cccc3ccccc23)C1=O (centres undefined)"
  Measured result: 97
- Compound: "Nc1c(/N=N/c2ccc(-c3ccc(/N=N/c4cc(S(=O)(=O)O)c5ccccc5c4N)cc3)cc2)cc(S(=O)(=O)O)c2ccccc12"
  Measured result: 0
- Compound: "O=C1NC(=O)C(c2ccc(-c3cccs3)s2)N1 (centres undefined)"
  Measured result: 87
- Compound: "O=C1NC(=O)C(c2cccc3ccccc23)N1 (centres undefined)"
  Measured result: 91

A. O=C1NC(c2cccc3ccccc23)C(=O)N1CCCCN1C(=O)NC(c2cccc3ccccc23)C1=O (centres undefined)
B. O=C1NC(=O)C(c2ccc(S(=O)(=O)O)cc2S(=O)(=O)O)N1 (racemic)
Prompt: Of A and B , which carries the smaller reported Activity figure? Kindly give the label for the entry you pick.
Completion: B

a. O=C1NC(=O)C(c2c3ccccc3cc3ccccc23)N1 (centres undefined)
b. O=C1NC(=O)C(c2ccc(-c3ccc(C(=O)O)cc3)cc2)N1 (centres undefined)
Prompt: Of a and b , which carries the smaller reported Activity figure? Kindly give the label for the entry you pick.
Completion: b
(b: 37%, a: 81%)

###

species on record: Rattus norvegicus; assay: Inhibition of VGLUT in rat synaptic vesicles assessed as glutamate uptake at 5 mM relative to control; design: scale not given: the % may be the effect or the level left
Measurement name: Activity (%)

Recorded Activity, per entry:
- Molecule: "N[C@@H](CS)C(=O)O"
  Value units: "%"
  Activity: 90
- Molecule: "O=C1NC(=O)C(c2cccnc2)N1 (stereo not given)"
  Value units: "%"
  Activity: 111

A. CN(C)c1ccc(/C=C/C2NC(=O)NC2=O)cc1 (stereo not given)
B. O=C1NC(=O)C(c2c[nH]cn2)N1 (stereo not given)
Prompt: Of A and B , which carries the smaller reported Activity figure? Kindly give the label for the entry you pick.
Completion: A
(A: 63%, B: 103%)

Data credit: ChEMBL document CHEMBL1914336
